Measured values drawn from the supplement of paper PMC10412459 for this set.

- System: K562 SF3B1 K700E vs K562 SF3B1 WT
- assay-summary: surviving fraction ratio K562 SF3B1 K700E / K562 SF3B1 WT (each relative to DMSO); higher = less selective killing of SF3B1 K700E cells
- conditions-used: 500nM; 5 days
property-name: surviving fraction ratio K562 SF3B1 K700E / K562 SF3B1 WT

1. CC[C@@H]1C(=O)N(C)c2cnc(Nc3ccc(C(=O)NC4CCN(C)CC4)cc3OC)nc2N1C1CCCC1 | 2.76
2. CCc1cc(Nc2nccc(-c3c(-c4ccc(OC)c(C(=O)Nc5c(F)cccc5F)c4)nc4ccccn34)n2)c(OC)cc1N1CCC(N2CCN(S(C)(=O)=O)CC2)CC1 | 0.824
3. Cn1ncnc1[C@H]1c2n[nH]c(=O)c3cc(F)cc(c23)N[C@@H]1c1ccc(F)cc1 [talazoparib] | 0.794
4. CNCc1ccc(-c2[nH]c3cc(F)cc4c3c2CCNC4=O)cc1 | 0.847
5. Cc1ccc(-c2cc(C(F)(F)F)nn2-c2ccc(S(N)(=O)=O)cc2)cc1 [celecoxib] | 0.79
6. O=C(c1cc(Cc2n[nH]c(=O)c3ccccc23)ccc1F)N1CCN(C(=O)C2CC2)CC1 [olaparib] | 1.1
7. O=C(NOCC1CC1)c1ccc(F)c(F)c1Nc1ccc(I)cc1Cl | 0.921
8. CC1(C)CC(=O)c2c(C(F)(F)F)nn(-c3ccc(C(N)=O)c(N[C@H]4CC[C@H](OC(=O)CN)CC4)c3)c2C1 | 1.09
